PARAMETER MEASURED: IC50 (nM)
The figure you give is taken to be in nM; do not add the unit.

Item "CCOc1ccn(-c2ccc(F)cc2)c(=O)c1C(=O)Nc1ccc(Oc2ccnc3cc(-c4ccccn4)sc23)c(F)c1" was tested on RON enzyme (Homo sapiens); the reported IC50 is 8.8
